Experiment: Color (λmax) by UV/visible spectrophotometer
Format: physicochemical
READOUT NAME: Color (λmax; nm)
All answers are understood in nm, so give the number only.

Sure, the documented Color (λmax; nm) for CCN1CCN(CC)c2cc(/N=N/c3n(CCC[N+](C)(C)C)cc[n+]3CCC[N+](C)(C)C)ccc21 [Compound 2] is 580

For `CCN1CCN(CC)c2cc(/N=N/c3n(CCCCN)cc[n+]3CCCCN)ccc21` the compound record lists Color (λmax; nm) as 587

Memo: `CCCCCN1CCN(CCCCC)c2cc(/N=N/c3n(CCCCN)cc[n+]3CCCCN)ccc21.Cl.Cl.[Br-]` , reported Color (λmax; nm): 599

The compound listed as CCN1CCN(CC)c2cc(/N=N/c3n(CCC[N+](C)(C)C)cc[n+]3CCC[N+](C)(C)C)ccc21 [Compound 6] shows Color (λmax; nm) equal to 592

src = patent US9982138B2
